growth reference
system: OVCAR-4 ovarian; assay: NCI-60 one-dose screen, 48 h (100 = growth as untreated, 0 = no growth, -100 = all killed); conditions: 10 µM unless noted
Compounds without any hit were thinned out: in the full panel of roughly 83,000, 20% have a hit.
# output: bare number, implied unit %

INSERT INTO measurements (given_smiles, value_measured) VALUES
  ('COC(=O)CCP(CCC(=O)OC)c1ccccc1', 103),
  ('Nc1ccc(P(=O)(O)O)cc1', 90.7);

Query compound follows.
**Query** For the record `Oc1cc(N2CC2)c(O)cc1N1CC1` , what value of growth is listed for OVCAR-4 ovarian?
**Result** 18

====

tested on: SK-OV-3 ovarian; assay: NCI-60 one-dose screen, 48 h; details: 10 µM unless noted
This is part of a sample that, as a whole, favours compounds with a hit. Of some 83,000 tested, about 20% had one in any assay. Activity calls are given as the source filed them. How the source made its calls: active means growth percent below 10; inactive means the rest.
Choose the fitting class; nothing outside active, inactive is accepted.

INSERT INTO measurements (compound, experimental_system, discrete_label) VALUES
  ('COc1cc(/C=C\[N+](=O)[O-])ccc1OCc1ccccc1', 'SK-OV-3 ovarian', 'inactive');

**Query** What did the test return for `Cn1cc(C(=O)C[n+]2ccccc2)c2ccccc21` ?
**Result** inactive

**Query** What did the test return for `CCCC[C@H]1C(=O)O[C@H](C)[C@H](NC(=O)c2cccc(NC=O)c2O)C(=O)O[C@@H](C)[C@@H]1OC(=O)CC(C)C` ?
**Result** inactive

**Query** What did the test return for `O=[N+]([O-])c1ccc(CI)cc1` ?
**Result** inactive

**Query** What did the test return for NC1CN2CCC1CC2 (stereo not given) ?
**Result** inactive

**Query** What did the test return for `COC(=O)[C@@H](C)C[C@H](Cc1ccccc1)NC(=O)c1cccc([C@@H](C[C@H](C(C)C)N(C)C(=O)[C@@H](NC(=O)[C@H]2CCCCN2C)C2CC2)OC(C)=O)n1` ?
**Result** active

**Query** What did the test return for `Cc1cc(C(C)(C)C)ccc1O` ?
**Result** inactive

**Query** What did the test return for `C[C@]12CC[C@@H](OC(=O)N(CCCl)N=O)C[C@@H]1CC[C@@H]1[C@@H]2CC[C@]2(C)C(=O)CC[C@@H]12` ?
**Result** inactive

====

tested on: M14 melanoma; test: NCI-60 one-dose screen, 48 h (100 = growth as untreated, 0 = no growth, -100 = all killed); conditions: 10 µM unless noted
About 83,000 compounds went through this panel and 20% of them were active in at least one assay; those are over-represented in the sample as a whole.
growth reference
# output: bare number, implied unit %

Consider the reported growth for these molecules:
INSERT INTO measurements (molecule, measured_parameter, value_measured) VALUES
  ('O=C/C=C/c1ccco1', 'growth', 102),
  ('O=[N+]([O-])c1cc(Br)c(O)c(Br)c1', 'growth', 111),
  ('COc1cc(/C=C\[N+](=O)[O-])ccc1OCc1ccccc1', 'growth', 15.5),
  ('C[N+]1(C)CCCC1c1cccnc1 (configuration not stated)', 'growth', 97.5);

**Query** For the record `COc1cc(C=C2C(=O)NC(=O)NC2=O)ccc1O` , what value of growth is listed for M14 melanoma?
**Result** 101

**Query** For the record `Oc1cc(N2CC2)c(O)cc1N1CC1` , what value of growth is listed for M14 melanoma?
**Result** -50.4

**Query** For the record `Cc1c2ccncc2c(C)c2c1[nH]c1ccccc12` , what value of growth is listed for M14 melanoma?
**Result** -89.9

**Query** For the record `CN(C)c1ccc(N)cc1` , what value of growth is listed for M14 melanoma?
**Result** 101

**Query** For the record `Nc1nc(=S)nc(N)[nH]1` , what value of growth is listed for M14 melanoma?
**Result** 89.5

**Query** For the record CCC(=O)C(CC(C)[N+](C)(C)C)(c1ccccc1)c1ccccc1 (configuration not stated) , what value of growth is listed for M14 melanoma?
**Result** 96.2

**Query** For the record `c1ccc2c(c1)O[As](O[As]1Oc3ccccc3O1)O2` , what value of growth is listed for M14 melanoma?
**Result** 52.2
